measurement.label: melting point

{"columns": ["compound", "melting point"],
 "data": [
  ["CC(=O)N1CCN(CCCOc2ccc(C(=O)c3ccc(F)cc3)cc2)CC1.O=C(O)C(=O)O", "171.3 to 173.1 °C"],
  ["O=C(c1ccccc1)c1ccc(OCCCN2CCN(c3ccc([N+](=O)[O-])cc3)CC2)cc1", "182.3 to 183.9 °C"],
  ["O=C(c1ccc(Cl)cc1)c1ccc(OCCCN2CCN(c3ccc([N+](=O)[O-])cc3)CC2)cc1", "154.5 to 155.8 °C"]
]}

Task: Consider the molecule O=C(c1ccc(F)cc1)c1ccc(OCCCN2CCN(c3ccc([N+](=O)[O-])cc3)CC2)cc1 and give its measured melting point.
Output: 173.3 to 174.2 °C

Task: # input molecule: O=C(O)C(=O)O.O=C(c1ccc(Cl)cc1)c1ccc(OCCCN2CCN(C(=O)C3CC3)CC2)cc1 ; wanted: its melting point
Output: 176.9 to 179.2 °C

Task: Which melting point is listed for COc1cccc(N2CCN(CCCOc3ccc(C(=O)c4ccc(F)cc4)cc3)CC2)c1.O=C(O)C(=O)O ?
Output: 127.4 to 129.7 °C

* * *

Quick reference: DPPH Assay (λ = 517 nm) Absorbance Decrease in 10^−4 mol/L Concentration [%] Mean ± SEM of the listed items.
Test: DPPH free radical scavenging assay
Details: 10^−4 mol/L; 30 min incubation; vs solvent + reaction mixture blank
Please answer using a numeric value trailed by its unit.

{"columns": ["compound", "result"],
 "data": [
  ["O=C(O)C(=O)O.O=C(c1ccc(Cl)cc1)c1ccc(OCCCN2CCN(C(=O)C3CC3)CC2)cc1", "6.79 ± 0.51%"],
  ["COc1cccc(N2CCN(CCCOc3ccc(C(=O)c4ccc(Cl)cc4)cc3)CC2)c1.O=C(O)C(=O)O", "4.88 ± 0.18%"],
  ["CC(=O)c1ccc(N2CCN(CCCOc3ccc(C(=O)c4ccc(F)cc4)cc3)CC2)cc1", "4.42 ± 0.33%"],
  ["CC(=O)c1ccc(N2CCN(CCCOc3ccc(C(=O)c4ccc(Cl)cc4)cc3)CC2)cc1", "3.33 ± 0.45%"]
]}

We now examine a further molecule.
Task: Suppose we examine the molecule O=C(O)C(=O)O.O=C(c1ccc(F)cc1)c1ccc(OCCCN2CCN(C(=O)C3CC3)CC2)cc1 ; what DPPH Assay (λ = 517 nm) Absorbance Decrease in 10^−4 mol/L Concentration [%] Mean ± SEM value has been reported?
Output: 7.70 ± 0.41%

* * *

# Lookup of reported melting point keyed by entry

Study these solved cases before continuing.
{"columns": ["molecule", "result"],
 "data": [
  ["CC(=O)N1CCN(CCCOc2ccc(C(=O)c3ccccc3)cc2)CC1.O=C(O)C(=O)O [Compound 4]", "136.8 to 140 °C"],
  ["CC(=O)c1ccc(N2CCN(CCCOc3ccc(C(=O)c4ccc(Cl)cc4)cc3)CC2)cc1 [Compound 11]", "180.6 to 183.4 °C"],
  ["O=C(O)C(=O)O.O=C(c1ccccc1)c1ccc(OCCCN2CCN(C(=O)C3CC3)CC2)cc1 [Compound 7]", "167.3 to 168.6 °C"],
  ["CC(=O)c1ccc(N2CCN(CCCOc3ccc(C(=O)c4ccccc4)cc3)CC2)cc1 [Compound 10]", "148.4 to 151.4 °C"],
  ["O=C(O)C(=O)O.O=C(c1ccc(F)cc1)c1ccc(OCCCN2CCN(C(=O)C3CC3)CC2)cc1 [Compound 9]", "181.1 to 182.7 °C"]
]}

Task: Field request: melting point | item: COc1cccc(N2CCN(CCCOc3ccc(C(=O)c4ccccc4)cc3)CC2)c1.O=C(O)C(=O)O [Compound 16]
Output: 143.6 to 146.1 °C

Task: Given COc1cccc(N2CCN(CCCOc3ccc(C(=O)c4ccc(Cl)cc4)cc3)CC2)c1.O=C(O)C(=O)O [Compound 17] , state its recorded melting point.
Output: 100.2 to 102.4 °C

Task: Look at this molecule and give its reported melting point. CC(=O)c1ccc(N2CCN(CCCOc3ccc(C(=O)c4ccc(F)cc4)cc3)CC2)cc1 [Compound 12]
Output: 162 to 163.6 °C
